Test system: 377384-186-R-J1-PDC complex spheroid viability
procedure.details: Anticancer human tumor 377384-186-R-J1-PDC patient-derived pancreatic carcinoma cell line growth inhibition [RAS]
conditions: second compound 0.003 µM; first compound 0.0316 µM; stronger effect = lower value
experimental.endpoint: viability, T/C

The following compounds have reported results that may help.
* CC(C)NCC(C(=O)N1CCN(c2ncnc3c2C(C)CC3O)CC1)c1ccc(Cl)cc1 (centres undefined) + CCn1c(-c2cc(N3CCN(C)CC3)cnc2C(C)OC)c2c3cc(ccc31)-c1csc(n1)CC(NC(=O)C1CC1C)C(=O)N1CCCC(N1)C(=O)OCC(C)(C)C2 | 19.6%
* CCN1CCN(Cc2ccc(Nc3ncc(F)c(-c4cc(F)c5nc(C)n(C(C)C)c5c4)n3)nc2)CC1 + CCn1c(-c2cccnc2C(C)OC)c2c3cc(ccc31)N1CCOC(CC(NC(=O)C(C(C)C)N(C)C(=O)C3(F)CCN(C(=O)C#CC(C)(C)N(C)C)CC3)C(=O)N3CCCC(N3)C(=O)OCC(C)(C)C2)C1 | 75.3%
* CCN1CCN(Cc2ccc(Nc3ncc(F)c(-c4cc(F)c5nc(C)n(C(C)C)c5c4)n3)nc2)CC1 + CCn1c(-c2cc(N3CCN(C)CC3)cnc2C(C)OC)c2c3cc(ccc31)-c1csc(n1)CC(NC(=O)C1CC1C)C(=O)N1CCCC(N1)C(=O)OCC(C)(C)C2 | 15.9%

// switching to the query compound
Given item CC(C)n1nc(-c2ccc3oc(N)nc3c2)c2c(N)ncnc21 + CCn1c(-c2cc(N3CCN(C)CC3)cnc2C(C)OC)c2c3cc(ccc31)-c1csc(n1)CC(NC(=O)C1CC1C)C(=O)N1CCCC(N1)C(=O)OCC(C)(C)C2 , the value recorded as its viability, T/C is 8.27%

###

Tested on: 377384-186-R-J1-PDC complex spheroid viability
procedure.details: Anticancer human tumor 377384-186-R-J1-PDC cell line growth inhibition [RAS];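 note: spheroids exposed to compounds for seven days before readout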
conditions: curve of first compound; second compound 0.316 µM
pIC50: −log10 of the molar value.
Label rule, in plain words: pIC50 of 8 and up is condition met, under 8 is condition not met.

Request: Please indicate if the recorded pIC50 for CC(C)NCC(C(=O)N1CCN(c2ncnc3c2C(C)CC3O)CC1)c1ccc(Cl)cc1 (stereo not given) + C=CC(=O)N1CCN(c2nc(OCC3CCCN3C)nc3c(F)c(-c4nc(N)cc(C)c4C(F)(F)F)c(Cl)cc23)C(C)C1 meets or exceeds 8.
Response: condition not met

###

Test system: 377384-186-R-J1-PDC complex spheroid viability
procedure.details: Anticancer human tumor 377384-186-R-J1-PDC cell line growth inhibition [RAS]; active = viability on the fitted dose curve at most 10% of control; inactive = the rest;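 note: spheroids exposed to compounds for seven days before readout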
conditions: second compound 0.0949 µM; first compound 0.316 µM
// allowed return values: active, inactive

// known answers, use as guide
• CCN1CCN(Cc2ccc(Nc3ncc(F)c(-c4cc(F)c5nc(C)n(C(C)C)c5c4)n3)nc2)CC1 + CCn1c(-c2cccnc2C(C)OC)c2c3cc(ccc31)N1CCOC(CC(NC(=O)C(C(C)C)N(C)C(=O)C3(F)CCN(C(=O)C#CC(C)(C)N(C)C)CC3)C(=O)N3CCCC(N3)C(=O)OCC(C)(C)C2)C1 = inactive
• CC1(O)CCCC1n1c(=O)c(C(F)F)cc2cnc(NC3CCN(S(C)(=O)=O)CC3)nc21 (stereo not drawn) + CCn1c(-c2cc(N3CCN(C)CC3)cnc2C(C)OC)c2c3cc(ccc31)-c1csc(n1)CC(NC(=O)C1CC1C)C(=O)N1CCCC(N1)C(=O)OCC(C)(C)C2 = active
• C[C@@H](NC(=O)c1ncnc(N)c1Cl)c1ncc(C(=O)Nc2cc(C(F)(F)F)c(Cl)cn2)s1 + CCn1c(-c2cc(N3CCN(C)CC3)cnc2C(C)OC)c2c3cc(ccc31)-c1csc(n1)CC(NC(=O)C1CC1C)C(=O)N1CCCC(N1)C(=O)OCC(C)(C)C2 = active
• CC(C)NCC(C(=O)N1CCN(c2ncnc3c2C(C)CC3O)CC1)c1ccc(Cl)cc1 (stereo not drawn) + CCn1c(-c2cc(N3CCN(C)CC3)cnc2C(C)OC)c2c3cc(ccc31)-c1csc(n1)CC(NC(=O)C1CC1C)C(=O)N1CCCC(N1)C(=O)OCC(C)(C)C2 = active
• Cc1nc(N2CCC3(CC2)COC(C)C3N)c(CO)nc1Sc1ccnc(N)c1Cl (stereo not drawn) + CCn1c(-c2cccnc2C(C)OC)c2c3cc(ccc31)N1CCOC(CC(NC(=O)C(C(C)C)N(C)C(=O)C3(F)CCN(C(=O)C#CC(C)(C)N(C)C)CC3)C(=O)N3CCCC(N3)C(=O)OCC(C)(C)C2)C1 = inactive

Request: Hi, do you know how C[C@@H](NC(=O)c1ncnc(N)c1Cl)c1ncc(C(=O)Nc2cc(C(F)(F)F)c(Cl)cn2)s1 + CCn1c(-c2cccnc2C(C)OC)c2c3cc(ccc31)N1CCOC(CC(NC(=O)C(C(C)C)N(C)C(=O)C3(F)CCN(C(=O)C#CC(C)(C)N(C)C)CC3)C(=O)N3CCCC(N3)C(=O)OCC(C)(C)C2)C1 came out in this test?
Response: inactive

Request: Hi, do you know how NC1c2ccccc2OC12CCN(c1cnc3c(N4CCCc5ncccc54)n[nH]c3n1)CC2 (stereo not drawn) + CCn1c(-c2cc(N3CCN(C)CC3)cnc2C(C)OC)c2c3cc(ccc31)-c1csc(n1)CC(NC(=O)C1CC1C)C(=O)N1CCCC(N1)C(=O)OCC(C)(C)C2 came out in this test?
Response: active

Request: Hi, do you know how CCC(CC)c1cc(NC2CCC(N)C2)n2nccc2n1 (stereo not drawn) + CCn1c(-c2cccnc2C(C)OC)c2c3cc(ccc31)N1CCOC(CC(NC(=O)C(C(C)C)N(C)C(=O)C3(F)CCN(C(=O)C#CC(C)(C)N(C)C)CC3)C(=O)N3CCCC(N3)C(=O)OCC(C)(C)C2)C1 came out in this test?
Response: inactive
